biological target: RET (S891A) (Homo sapiens, UniProt P07949, S891A); construct: purchased Reaction Biology Corporation (contract assay); assay: Biochemical kinase assay; details: 10 μM ATP
Sequence (P07949 29-1114 S891A): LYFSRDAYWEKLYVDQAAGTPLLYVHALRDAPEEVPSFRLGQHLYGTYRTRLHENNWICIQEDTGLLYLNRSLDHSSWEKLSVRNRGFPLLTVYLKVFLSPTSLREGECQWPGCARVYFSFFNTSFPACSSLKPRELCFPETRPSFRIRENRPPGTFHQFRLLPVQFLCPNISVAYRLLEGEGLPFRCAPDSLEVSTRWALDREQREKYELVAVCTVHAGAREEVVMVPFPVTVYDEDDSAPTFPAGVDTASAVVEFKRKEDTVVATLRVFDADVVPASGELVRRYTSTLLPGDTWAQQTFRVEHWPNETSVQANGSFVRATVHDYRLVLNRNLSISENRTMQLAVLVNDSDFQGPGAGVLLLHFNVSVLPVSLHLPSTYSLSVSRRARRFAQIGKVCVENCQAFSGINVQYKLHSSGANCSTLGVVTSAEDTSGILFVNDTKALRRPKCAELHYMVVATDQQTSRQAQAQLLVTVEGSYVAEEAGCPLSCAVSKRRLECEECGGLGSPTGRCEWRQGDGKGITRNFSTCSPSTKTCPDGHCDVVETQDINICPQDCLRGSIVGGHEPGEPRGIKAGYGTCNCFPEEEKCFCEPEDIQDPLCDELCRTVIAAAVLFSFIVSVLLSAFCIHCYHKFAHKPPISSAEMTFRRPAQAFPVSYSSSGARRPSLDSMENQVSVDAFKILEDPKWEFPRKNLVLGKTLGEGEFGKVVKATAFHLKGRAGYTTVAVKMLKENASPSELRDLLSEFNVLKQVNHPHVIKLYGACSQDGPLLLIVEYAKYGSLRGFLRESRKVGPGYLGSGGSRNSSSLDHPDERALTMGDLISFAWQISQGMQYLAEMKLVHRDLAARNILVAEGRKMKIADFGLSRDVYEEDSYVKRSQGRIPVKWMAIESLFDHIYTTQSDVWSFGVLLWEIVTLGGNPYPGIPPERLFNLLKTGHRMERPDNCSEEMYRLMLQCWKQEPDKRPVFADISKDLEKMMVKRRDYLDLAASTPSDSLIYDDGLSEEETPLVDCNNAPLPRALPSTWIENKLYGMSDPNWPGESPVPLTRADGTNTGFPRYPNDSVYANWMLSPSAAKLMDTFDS
measurement.name: IC50

>>> print(df.to_string())
                            compound_string  result
0  C[C@H]1CNC(=O)c2cnn3cc4c(nc23)N(Cc2cc(F)cnc2O1)[C@@H]1CCC[C@@H]1O4  0.2 nM

* * *

Target: LYN (Homo sapiens)
Construct: purchased Reaction Biology Corporation (contract assay)
Sequence (P07948 whole entry): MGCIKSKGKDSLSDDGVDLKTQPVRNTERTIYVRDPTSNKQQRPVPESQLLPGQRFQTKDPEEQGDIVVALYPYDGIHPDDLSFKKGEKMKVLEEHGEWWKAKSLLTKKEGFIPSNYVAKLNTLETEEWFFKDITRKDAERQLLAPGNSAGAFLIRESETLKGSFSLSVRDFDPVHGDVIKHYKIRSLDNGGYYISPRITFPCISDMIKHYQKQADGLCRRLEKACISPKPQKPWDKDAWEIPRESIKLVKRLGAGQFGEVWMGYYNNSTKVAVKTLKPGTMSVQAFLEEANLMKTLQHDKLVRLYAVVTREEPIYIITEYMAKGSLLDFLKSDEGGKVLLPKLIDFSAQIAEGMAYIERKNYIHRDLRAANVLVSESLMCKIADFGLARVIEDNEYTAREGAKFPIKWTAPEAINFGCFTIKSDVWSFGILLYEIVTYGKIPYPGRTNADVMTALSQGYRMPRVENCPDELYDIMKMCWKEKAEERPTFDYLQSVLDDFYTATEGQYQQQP
Assay: Biochemical kinase assay
Conditions: 10 μM ATP
Procedure: Specific kinase/substrate pairs along with required cofactors were prepared in reaction buffer; 20 mM Hepes pH 7.5, 10 mM MgCl2, 1 mM EGTA, 0.02% Brij35, 0.02 mg/ml BSA, 0.1 mM Na3VO4, 2 mM DTT, 1% DMSO. Compounds were delivered into the reaction, followed ˜20 minutes later by addition of a mixture of ATP (Sigma, St. Louis Mo.) and ^33P ATP (Perkin Elmer, Waltham Mass.) to a final concentration of 10 μM. […]
measurement.name: IC50 (nM)

                                   compound  measurement_name  numeric_value
0  C[C@H]1CNC(=O)c2cnn3cc4c(nc23)N(Cc2cc(F)cnc2O1)[C@@H]1CCC[C@@H]1O4 [Compound I]              IC50              2

* * *

biological target: SRC (Homo sapiens, UniProt P12931); construct: purchased Reaction Biology Corporation (contract assay); experiment: Biochemical kinase assay; settings: 10 μM ATP
Sequence (P12931 whole entry): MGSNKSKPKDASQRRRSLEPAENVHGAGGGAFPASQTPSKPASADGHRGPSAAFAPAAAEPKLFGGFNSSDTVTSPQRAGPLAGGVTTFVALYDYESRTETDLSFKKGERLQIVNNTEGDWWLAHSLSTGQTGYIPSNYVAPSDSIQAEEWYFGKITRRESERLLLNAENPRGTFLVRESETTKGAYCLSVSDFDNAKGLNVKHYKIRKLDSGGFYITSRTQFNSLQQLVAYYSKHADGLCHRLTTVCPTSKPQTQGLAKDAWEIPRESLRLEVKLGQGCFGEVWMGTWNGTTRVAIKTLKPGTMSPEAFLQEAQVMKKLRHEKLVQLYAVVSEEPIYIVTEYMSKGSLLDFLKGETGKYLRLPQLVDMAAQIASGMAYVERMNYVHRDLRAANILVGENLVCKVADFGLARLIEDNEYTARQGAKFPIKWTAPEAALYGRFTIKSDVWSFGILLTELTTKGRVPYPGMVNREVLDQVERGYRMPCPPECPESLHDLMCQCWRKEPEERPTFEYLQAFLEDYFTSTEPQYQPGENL
measurement.name: IC50

                            compound_string  measurement_name  result
0  C[C@H]1CNC(=O)c2cnn3cc4c(nc23)N(Cc2cc(F)cnc2O1)[C@@H]1CCC[C@@H]1O4              IC50  1.5 nM

* * *

target: YES/YES1 (Homo sapiens, UniProt P07947); construct: purchased Reaction Biology Corporation (contract assay); test: Biochemical kinase assay; details: 10 μM ATP
Sequence (P07947 whole entry): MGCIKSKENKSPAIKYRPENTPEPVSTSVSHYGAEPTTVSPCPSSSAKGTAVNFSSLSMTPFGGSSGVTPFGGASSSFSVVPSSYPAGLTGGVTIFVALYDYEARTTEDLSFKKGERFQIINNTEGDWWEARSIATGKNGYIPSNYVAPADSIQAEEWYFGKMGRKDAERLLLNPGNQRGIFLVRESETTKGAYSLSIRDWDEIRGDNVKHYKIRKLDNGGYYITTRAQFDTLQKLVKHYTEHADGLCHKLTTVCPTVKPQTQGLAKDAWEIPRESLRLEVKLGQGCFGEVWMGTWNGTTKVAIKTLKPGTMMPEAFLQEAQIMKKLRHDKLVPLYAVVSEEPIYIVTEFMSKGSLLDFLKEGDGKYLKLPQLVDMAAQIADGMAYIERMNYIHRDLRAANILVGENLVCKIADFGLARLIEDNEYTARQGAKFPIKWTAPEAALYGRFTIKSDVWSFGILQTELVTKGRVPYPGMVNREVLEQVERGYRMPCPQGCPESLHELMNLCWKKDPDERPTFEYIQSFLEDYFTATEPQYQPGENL
measurement.name: IC50 (nM)

                            compound_string  measurement_name  result_unit  numeric_value
0  C[C@H]1CNC(=O)c2cnn3cc4c(nc23)N(Cc2cc(F)cnc2O1)[C@@H]1CCC[C@@H]1O4              IC50           nM            2.6

* * *

system: KG-1; assay: Cell proliferation assay (CellTiter-Glo); type: cell-based; details: Homo sapiens, anti-cell proliferation, 72 hours
measurement.name: IC50 (nM)

>>> df
                            compound_string  study_target  result_unit  numeric_value
0  C[C@H]1CNC(=O)c2cnn3cc4c(nc23)N(Cc2cc(F)cnc2O1)[C@@H]1CCC[C@@H]1O4          KG-1           nM            131

* * *

molecular target: RET (Y806H) (Homo sapiens, UniProt P07949, Y806H); construct: purchased Reaction Biology Corporation (contract assay); assay: Biochemical kinase assay; settings: 10 μM ATP
Sequence (P07949 29-1114 Y806H): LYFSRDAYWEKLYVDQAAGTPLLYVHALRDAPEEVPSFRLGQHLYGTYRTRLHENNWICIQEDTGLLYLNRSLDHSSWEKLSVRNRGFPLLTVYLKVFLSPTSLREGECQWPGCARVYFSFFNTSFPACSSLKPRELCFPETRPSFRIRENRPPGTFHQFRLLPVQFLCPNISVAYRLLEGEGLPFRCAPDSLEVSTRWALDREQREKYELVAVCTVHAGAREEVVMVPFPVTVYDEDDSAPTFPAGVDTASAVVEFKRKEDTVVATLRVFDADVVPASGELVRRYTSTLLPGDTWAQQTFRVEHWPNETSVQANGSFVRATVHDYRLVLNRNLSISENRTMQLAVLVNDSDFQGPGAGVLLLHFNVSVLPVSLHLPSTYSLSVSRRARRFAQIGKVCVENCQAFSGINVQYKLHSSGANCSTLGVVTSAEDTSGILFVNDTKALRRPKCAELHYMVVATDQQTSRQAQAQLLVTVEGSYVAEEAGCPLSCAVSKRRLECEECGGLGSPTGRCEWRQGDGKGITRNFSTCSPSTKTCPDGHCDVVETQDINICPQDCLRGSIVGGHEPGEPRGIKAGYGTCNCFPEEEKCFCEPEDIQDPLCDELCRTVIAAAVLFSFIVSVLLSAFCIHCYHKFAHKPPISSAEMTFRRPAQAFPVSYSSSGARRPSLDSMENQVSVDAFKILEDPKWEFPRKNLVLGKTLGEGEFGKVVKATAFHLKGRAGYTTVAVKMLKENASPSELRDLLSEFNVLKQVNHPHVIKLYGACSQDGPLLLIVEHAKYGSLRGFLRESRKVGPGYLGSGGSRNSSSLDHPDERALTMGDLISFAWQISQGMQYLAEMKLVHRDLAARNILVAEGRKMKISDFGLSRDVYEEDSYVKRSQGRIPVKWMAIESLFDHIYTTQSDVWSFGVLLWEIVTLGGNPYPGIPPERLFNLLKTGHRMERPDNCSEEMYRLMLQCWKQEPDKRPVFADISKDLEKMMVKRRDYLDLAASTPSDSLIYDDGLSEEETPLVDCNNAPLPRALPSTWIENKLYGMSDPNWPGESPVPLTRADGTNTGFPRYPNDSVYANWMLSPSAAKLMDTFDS
measurement.name: IC50 (nM)

In [3]: df
Out[3]:
                            compound_string  measurement_name  numeric_value
0  C[C@H]1CNC(=O)c2cnn3cc4c(nc23)N(Cc2cc(F)cnc2O1)[C@@H]1CCC[C@@H]1O4              IC50            2.6
